Cited source: the supplement of paper PMC9112550

# System: Escherichia coli TOP10;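 further: peptides expressed intracellularly from a pBAD plasmid library in pooled LB shake-flask culture, induced with 0.3% L-arabinose, DNA abundance read by NGS, three biological replicates, DESeq2 with apeglm shrinkage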
# Procedure Summary: shrunken log2 fold change of peptide-encoding DNA abundance (4.5 h post-induction vs induction); higher = less antimicrobial activity (less host growth inhibition)
# Condition Label: time post-induction: 4.5 h; library: site-saturation at positions 5, 18, 19, 20
Assign a class from recorded shrunken log2 fold change; defined classes: low (below -0.08), moderate (-0.08 to below 0.1), high (0.1 or more)

Please review the entries below; each comes with its answer.
Sequence Record	Label Class
RRIRERPPRLPRPRPRPHVLPRP	low
RRIRERPPRLPRPRPRPEHSPRP	low
RRIRCRPPRLPRPRPRPAFMPRP	high
RRIRIRPPRLPRPRPRPGHRPRP	moderate
RRIRYRPPRLPRPRPRPEIQPRP	moderate
RRIRWRPPRLPRPRPRPEGCPRP	high
RRIRVRPPRLPRPRPRPQSQPRP	low
RRIRLRPPRLPRPRPRPVCRPRP	moderate

Query: Assign a category based on measured shrunken log2 fold change for RRIRGRPPRLPRPRPRPYKTPRP and give only the class name.
Response: low

Query: Hi there! Could you help me figure out the category for RRIRLRPPRLPRPRPRPWPEPRP please?
Response: high

Query: Note: place this sequence into its band. Item: RRIRERPPRLPRPRPRPMWCPRP
Response: moderate

Query: // bin(item) where item = RRIRNRPPRLPRPRPRPAPFPRP
Response: low

Query: Categorize the following entry: RRIRWRPPRLPRPRPRPWLIPRP
Response: high

Query: Class (by measured shrunken log2 fold change) for RRIRCRPPRLPRPRPRPRHCPRP
Response: high

Query: # classify by shrunken log2 fold change band: RRIRFRPPRLPRPRPRPELKPRP
Response: moderate
